Kindly state NADPH fluorescence slope for each of the entries shown.
Target System: Voltage-gated potassium channel subunit beta-2 (Rattus norvegicus)
Protocol Description: enhancers of rat Kvbeta2 NADPH turnover – biochemical, NADPH fluorescence, primary screen (AID 623);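 note: fluorescence intensity change per second fitted from 20 to 320 s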
Conditions Used: Recombinant KvBeta, NADPH fluorescence decrease slope, 10 min; at 10 µM; active compounds read low
Hey, just send me the number, nothing else.

Q: Item: CCN(CC)CCOC(=O)c1c(C)oc2ccc(O)cc12 Test system: Voltage-gated potassium channel subunit beta-2 (Rattus norvegicus) Read-out: NADPH fluorescence slope Value: ?
Ans: -8e-05

Q: Item: CCOc1ncccc1C(=O)OCC(=O)N1CC(=O)Nc2ccccc21 Test system: Voltage-gated potassium channel subunit beta-2 (Rattus norvegicus) Read-out: NADPH fluorescence slope Value: ?
Ans: 3.8e-06

Q: Item: Cc1cc(=O)[nH]c(SCc2nc3ncccn3c2Br)n1 Test system: Voltage-gated potassium channel subunit beta-2 (Rattus norvegicus) Read-out: NADPH fluorescence slope Value: ?
Ans: -6.4e-06

Q: Item: CC(=O)c1c(C)[nH]c(C(=O)N2CCN(C(=O)c3ccco3)CC2)c1C Test system: Voltage-gated potassium channel subunit beta-2 (Rattus norvegicus) Read-out: NADPH fluorescence slope Value: ?
Ans: 9e-06

Q: Item: CCOc1ccc(-c2nnc3sc(-c4c(OC)cccc4OC)nn23)cc1 Test system: Voltage-gated potassium channel subunit beta-2 (Rattus norvegicus) Read-out: NADPH fluorescence slope Value: ?
Ans: -3.7e-05

Q: Item: CN(CCNS(=O)(=O)c1ccc2c(c1)oc(=O)n2C)Cc1ccccc1 Test system: Voltage-gated potassium channel subunit beta-2 (Rattus norvegicus) Read-out: NADPH fluorescence slope Value: ?
Ans: -4.2e-05

Q: Item: O=C(CNC(=O)c1ccccc1C(=O)O)c1ccccc1 Test system: Voltage-gated potassium channel subunit beta-2 (Rattus norvegicus) Read-out: NADPH fluorescence slope Value: ?
Ans: 1.4e-05

Q: Item: COCCCN(C(C)=O)c1nc(-c2ccccc2)cs1 Test system: Voltage-gated potassium channel subunit beta-2 (Rattus norvegicus) Read-out: NADPH fluorescence slope Value: ?
Ans: -3.7e-05

Q: Item: O=C(CSc1nnc(-c2ccncc2)n1-c1ccc(F)cc1)NC(=O)NCc1ccco1 Test system: Voltage-gated potassium channel subunit beta-2 (Rattus norvegicus) Read-out: NADPH fluorescence slope Value: ?
Ans: -0.000317

Q: Item: COc1ccc(OC)c(NC(=O)CCNS(=O)(=O)c2cccs2)c1 Test system: Voltage-gated potassium channel subunit beta-2 (Rattus norvegicus) Read-out: NADPH fluorescence slope Value: ?
Ans: 3.3e-05

Q: Item: CCCn1c(=O)c2ccccc2n2c(SCCOc3ccccc3F)nnc12 Test system: Voltage-gated potassium channel subunit beta-2 (Rattus norvegicus) Read-out: NADPH fluorescence slope Value: ?
Ans: 4.6e-05

---

Protocol Description: TLR3 IRF3 reporter activation blockers – cell-based, poly I:C stimulus, luciferase, 10K MLSCN set, primary screen (AID 602277)
Conditions Used: HEK293-TLR3 RL24 IRF3 luciferase reporter, at 10 µM, active compounds read high
Measurement Kind: inhibition (%)
Give a bare numeral; the unit % is implied.

Q: Fill in: inhibition of Cc1cc(C)nc(NC(=O)c2c(-c3c(Cl)cccc3Cl)noc2C)n1 is ___
Ans: 7.12

Q: Fill in: inhibition of CCOC(=O)c1ccccc1NC(=O)c1cccnc1 is ___
Ans: 10.8

Q: Fill in: inhibition of CCOC(=O)/C=C1\SCC(=O)N1Cc1ccc(Br)cc1 is ___
Ans: 20

Q: Fill in: inhibition of COc1ccc(Cl)c(NCCC(=O)O)c1 is ___
Ans: -4.52

Q: Fill in: inhibition of COC(=O)c1ccc(CSc2nc3c(cnn3-c3ccc(F)cc3)c(=O)[nH]2)o1 is ___
Ans: 18.8

Q: Fill in: inhibition of O=C(NCCO)c1cc2ccccc2cc1O is ___
Ans: -4.78
